Item-by-item account of Maximum sensitization of parental cells by modulator, drug VCR
test system: S180 cells, parental; assay: Modulation of intrinsic drug resistance, parental S180; format: cell-based, murine; details: S180; IC50 drug alone / IC50 drug + modulator, at nontoxic concentration limit
The answer should be written as a number, with no unit following it.

- compound: "CC[C@]12C=CCN3CC[C@@]4(c5cc([C@@]6(C(=O)OC)C[C@H]7CCCN(CCc8c6[nH]c6ccccc86)C7)c(OC)cc5N(C)[C@H]4[C@@](O)(C(=O)OC)[C@@H]1OC(C)=O)[C@@H]32 [analog n° 330]"
  assay.result: 2.0
- compound: "CC[C@H]1C[C@@H]2CN(CCc3c([nH]c4ccccc34)[C@](C(=O)OC)(c3cc4c(cc3OC)N(C)[C@H]3[C@@](O)(C(=O)OC)[C@H](OC(C)=O)[C@]5(CC)C=CCN6CC[C@]43[C@@H]65)C2)C1 [analog n° 354, C-20'-deoxy-C-16', 20' epi VBL]"
  assay.result: 3.0
- compound: "CCC1CC2CN(CCc3c([nH]c4ccccc34)C(C(=O)OC)(c3cc4c(cc3OC)N(C)C3C(O)(C(=O)OC)C(OC(C)=O)C5(CC)C=CCN6CCC43C65)C2)C1 (stereo not drawn) [analog n° 353, C-14'-epi-C-20'-deoxy-VBL]"
  assay.result: 7.0

What Maximum sensitization of parental cells by modulator, drug VCR appears in the records for this compound with S180 cells, parental? CC[C@]12C=CCN3CC[C@@]4(c5cc([C@]6(C(=O)OC)C[C@@H]7CCCN(CCc8c6[nH]c6ccccc86)C7)c(OC)cc5N(C)[C@H]4[C@@](O)(C(=O)OC)[C@@H]1OC(C)=O)[C@@H]32 [analog n° 331]
2.5

###

test: Inhibition of population growth (cytotoxicity), MDR strain S180/A10; format: cell-based, mouse; conditions: mouse, s180/a10 cells; read-out: non-toxic concentration limit for the modulator
value.type: MNTC at 72 h (µM)
Answer in µM, number only, no unit symbol.

Entry CC[C@@]1(O)C[C@H]2CN(CCc3c([nH]c4ccccc34)[C@](C(=O)OC)(c3cc4c(cc3OC)N(C)[C@H]3[C@@](O)(C(=O)OC)[C@H](OC(C)=O)[C@]5(CC)C=CCN6CC[C@]43[C@@H]65)C2)C1 [vincovaline, C-14', 16', 20'-epi-VBL] has what MNTC at 72 h?
50

###

test system: RCC-5 cells; experiment: Modulation of intrinsic drug resistance, RCC-5; assay type: cell-based, rat; details: RCC-5; IC50 drug alone / IC50 drug + modulator, at nontoxic concentration limit
Reported Maximum sensitization of parental cells by modulator, drug VBL values follow for various compounds
Keep it simple and answer with nothing but the number.

- compound: "CC[C@]12C=CCN3CC[C@@]4(c5cc([C@@]6(C(=O)OC)C[C@H]7CCCN(CCc8c6[nH]c6ccccc86)C7)c(OC)cc5N(C)[C@H]4[C@@](O)(C(=O)OC)[C@@H]1OC(C)=O)[C@@H]32 [analog n° 330]"
  assay.result: 2.0

Reported Maximum sensitization of parental cells by modulator, drug VBL, compound CCC1CC2CN(CCc3c([nH]c4ccccc34)C(C(=O)OC)(c3cc4c(cc3OC)N(C)C3C(O)(C(=O)OC)C(OC(C)=O)C5(CC)C=CCN6CCC43C65)C2)C1 (stereo not drawn) [analog n° 353, C-14'-epi-C-20'-deoxy-VBL] : ____
1.6

If you can, please state the reported Maximum sensitization of parental cells by modulator, drug VBL value of CC[C@]12C=CCN3CC[C@@]4(c5cc([C@]6(C(=O)OC)C[C@@H]7CCCN(CCc8c6[nH]c6ccccc86)C7)c(OC)cc5N(C)[C@H]4[C@@](O)(C(=O)OC)[C@@H]1OC(C)=O)[C@@H]32 [analog n° 331] .
1.0

Could you share which Maximum sensitization of parental cells by modulator, drug VBL value was measured for CC[C@H]1C[C@@H]2CN(CCc3c([nH]c4ccccc34)[C@](C(=O)OC)(c3cc4c(cc3OC)N(C)[C@H]3[C@@](O)(C(=O)OC)[C@H](OC(C)=O)[C@]5(CC)C=CCN6CC[C@]43[C@@H]65)C2)C1 [analog n° 354, C-20'-deoxy-C-16', 20' epi VBL] ?
1.9

###

test: Viability (MTT test) of P388 R cells; type: cell-based, mouse; details: mouse; resistant cells P388 R, 24 h and 48 h; read-out: concentrations up to which no cytotoxicity is seen
value.type: MNTC

Reported MNTC for CC[C@]12C=CCN3CC[C@@]4(c5cc([C@]6(C(=O)OC)C[C@H]7CCCN(CCc8c6[nH]c6ccccc86)C7)c(OC)cc5N(C)[C@H]4[C@@](O)(C(=O)OC)[C@@H]1OC(C)=O)[C@@H]32 [analog n° 352] : what is it?
≥ 100 µM
